# measurement-target: CD45 (Homo sapiens)
# Construct: incubating the cytosolic portion of CD45 with the compounds and p-nitrophenyl phosphate (pNPP); purchased BIOMOL (Plymouth Meeting, Pa.)
# Sequence (P08575 599-1306 limits assumed): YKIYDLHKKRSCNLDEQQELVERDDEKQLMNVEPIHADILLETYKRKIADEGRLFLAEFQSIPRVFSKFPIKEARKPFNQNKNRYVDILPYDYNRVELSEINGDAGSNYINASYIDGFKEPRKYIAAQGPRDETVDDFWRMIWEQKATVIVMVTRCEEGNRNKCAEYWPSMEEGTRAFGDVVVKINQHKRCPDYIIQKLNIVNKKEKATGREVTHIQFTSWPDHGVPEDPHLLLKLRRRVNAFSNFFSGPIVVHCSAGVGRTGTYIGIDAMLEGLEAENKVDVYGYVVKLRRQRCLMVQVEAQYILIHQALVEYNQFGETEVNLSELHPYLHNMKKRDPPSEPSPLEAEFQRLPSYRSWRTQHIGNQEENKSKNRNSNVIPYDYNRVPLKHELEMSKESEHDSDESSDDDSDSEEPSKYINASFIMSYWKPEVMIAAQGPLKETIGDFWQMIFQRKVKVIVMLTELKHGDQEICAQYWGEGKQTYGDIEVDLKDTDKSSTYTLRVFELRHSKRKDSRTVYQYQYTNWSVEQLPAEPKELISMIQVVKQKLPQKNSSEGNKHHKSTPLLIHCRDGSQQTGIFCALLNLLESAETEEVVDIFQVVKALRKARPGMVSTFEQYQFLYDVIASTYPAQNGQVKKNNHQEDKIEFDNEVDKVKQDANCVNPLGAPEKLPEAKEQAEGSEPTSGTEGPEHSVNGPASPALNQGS
# method-notes: Phosphatase assay using pNPP as substrate
# Assay type: biochemical
# test-settings: CD45 phosphatase, pNPP substrate, pH 7.0; read-out: pNPP IC50
property-name: IC50 (µM)

[A] Nc1ccc2c(c1)C(=O)C(=O)c1cccc([N+](=O)[O-])c1-2 [Example 84, 2-amino-5-nitro-phenanthrene-9,10-dione]
[B] Nc1ccc2c(c1)C(=O)C(=O)c1cccc(N)c1-2 [Example 85, 2,5-diamino-phenanthrene-9,10-dione]
[C] O=C(O)CNC(=O)c1ccc2c(c1)-c1ccccc1C(=O)C2=O [Example 104]
Input: Order the items by recorded IC50; the first position goes to the largest value. # answer = labels listed in requested order
Output: B, A, C
